// GI50 lookup, one value per entry
- System: CCRF-CEM leukemia
- TEST DESCRIPTION: NCI tumour cell line growth inhibition, 48 h

# CHEMICAL STRUCTURE, TGT, GI50
rows = [
    ("CC(=O)Nc1cc2c3c(cccc3c1)-c1ccccc1-2", "CCRF-CEM leukemia", "0.992 µM"),
    ("COc1cc(C)[nH]c(=O)c1CNC(=O)c1c(C)n([C@H](C)C2CCN(CC(F)(F)F)CC2)c2ccccc12", "CCRF-CEM leukemia", "50.4 µM"),
    ("Cn1c(=O)c(Oc2ccc(F)cc2F)cc2cnc(NCC(C)(C)O)nc21", "CCRF-CEM leukemia", "> 25 µM"),
    ("O=C(/C=C/C=C/c1ccc2c(c1)OCO2)N/N=C\\c1ccc(O)cc1O", "CCRF-CEM leukemia", "0.559 µM"),
    ("COc1cc(C(=O)NN=C2c3ccccc3-c3ccccc32)cc(OC)c1OC", "CCRF-CEM leukemia", "3.53 µM"),
    ("O=C(CCN1CCCN(c2cnc3ccccc3n2)CC1)c1csc2ccccc12", "CCRF-CEM leukemia", "12.5 µM"),
]

---

- Test system: UACC-257 melanoma
- TEST DESCRIPTION: NCI tumour cell line growth inhibition, 48 h

# COMPOUND, TGI
records = [
    ("CC/C=C\\C=C/C(=O)N/C=C/CCC", "> 100 µM"),
    ("C=C(C)CCC(O)[C@](C)(O)[C@H]1[C@H](O)C[C@@]2(C)[C@@H]3CCc4c(cc(OC5OC(CO)C(O)C(O)C5O)c(O)c4C)C3(C)C(=O)C[C@]12C (some centres undefined)", "> 100 µM"),
    ("COc1cc(N2CCC(N)CC2)ccc1Nc1ncc(Cl)c(-c2c[nH]c3ccccc23)n1", "2.34 µM"),
    ("Nc1n[nH]c2ccc([C@@H]3Nc4ccc5cn[nH]c5c4[C@H]4C5CCC(C5)[C@@H]34)cc12 (some centres undefined)", "> 100 µM"),
    ("O=C(O)c1ccc(Nc2cnc3cc(C(F)(F)F)ccc3n2)cc1", "> 100 µM"),
    ("Cc1ccc(-c2cc(=O)c(=O)[nH][nH]2)cc1", "> 100 µM"),
    ("c1cc(CSc2ncnc3nc[nH]c23)ccn1", "> 100 µM"),
    ("COC(=O)c1cccc(NC(=O)c2ccc(NC3=C(Cl)C(=O)N(Cc4ccccc4)C3=O)cc2)c1", "50.2 µM"),
    ("CN(C)c1ccc(/C=c2/c3cc(O)ccc3n3c2cc(-c2ccccc2)[n+]3C)cc1", "3.07 µM"),
]

---

- Test system: SNB-19 CNS
- TEST DESCRIPTION: NCI tumour cell line growth inhibition, 48 h
// TGI lookup, one value per entry
QUANTITY MEASURED: TGI

# COMPOUND, REPORTED
records = [
    ("Cc1c(C(=O)c2ccccc2)[n+](=O)c2cc(F)c(F)cc2n1[O-]", "5.3 µM"),
    ("O=c1oc2ccccc2n1P(=O)(Oc1ccc(Cl)cc1)n1c(=O)oc2ccccc21", "> 100 µM"),
    ("COc1ccc(Nc2cc(=O)[nH]c(=O)[nH]2)cc1", "> 100 µM"),
    ("OCC1OC(n2cnc3c(Cl)nc(Nc4ccc(Cl)c(Cl)c4)nc32)CC1O (stereo not given)", "> 50 µM"),
    ("CCOc1cc2c(cc1O)C(=O)C[C@@H]1[C@@H]2CC[C@]2(C)[C@@H](O)CC[C@@H]12", "> 55.2 µM"),
]
